# targetOfAssay: T1, Peptide 4: Biotin-AGGGGSGGGGSGGGGSAAA-Tyr-acid (N-terminal biotin; C-terminal acid)
# T1 construct: Control peptide without PC
# T1 peptide: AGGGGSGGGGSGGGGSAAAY
# assayProtocol: scFv ELISA
valueKind: OD450

Form: binder = PcOxP_DB02_G04 (scFv, V domains shown, scFv in periplasmic extract) VH: EVQLLESGGGLVQPGGSLRLSCAASGFTFSDYYMEWVRQAPGKGLEWVAASRWKANDYTTEYADSVKGRFTISRDNSKNTLYLQMNSLRAEDTAVYYCARDYYGSSYWYFDVWGQGTLVTVSS VL: DIVMTQSPDSLAVSLGERATINCKASQSVLYSKNKKHYLAWYQQKPGQPPKLLIYGASNRQIGVPDRFSGSGSGTDFTLTISSLQAEDVAVYYCAQFYVYPLTFGGGTKVEIK ; OD450 = 0.05 OD450
